Target: GST-tagged-Wee1 kinase (Homo sapiens, UniProt P30291)
Construct: purchased Carnabio 05-177
Sequence (P30291 whole entry): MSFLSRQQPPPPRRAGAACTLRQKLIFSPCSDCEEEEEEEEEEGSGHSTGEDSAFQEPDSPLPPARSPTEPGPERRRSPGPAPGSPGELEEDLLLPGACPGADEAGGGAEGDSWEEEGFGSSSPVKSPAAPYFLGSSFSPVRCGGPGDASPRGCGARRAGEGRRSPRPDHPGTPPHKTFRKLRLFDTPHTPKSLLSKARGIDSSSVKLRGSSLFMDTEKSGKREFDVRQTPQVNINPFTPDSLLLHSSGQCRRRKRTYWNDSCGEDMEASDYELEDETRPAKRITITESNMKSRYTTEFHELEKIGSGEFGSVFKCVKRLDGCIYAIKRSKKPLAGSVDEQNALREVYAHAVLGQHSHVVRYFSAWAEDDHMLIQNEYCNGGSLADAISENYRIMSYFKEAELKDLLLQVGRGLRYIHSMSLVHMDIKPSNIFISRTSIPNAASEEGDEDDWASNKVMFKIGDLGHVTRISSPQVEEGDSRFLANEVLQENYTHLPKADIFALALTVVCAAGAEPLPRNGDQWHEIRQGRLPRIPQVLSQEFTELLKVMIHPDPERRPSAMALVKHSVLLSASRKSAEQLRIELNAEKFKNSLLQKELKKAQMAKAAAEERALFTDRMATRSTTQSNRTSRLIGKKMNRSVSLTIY
Assay: Wee1 time-resolved fluorescence equilibrium binding assay (displacement of Oregon Green-labeled ATP-competitive probe)
Conditions: TR-FRET probe displacement; 2 nM GST-Wee1, 300 nM probe, 1 hour incubation; read-out: Wee-1 binding (Ki nM)
Experimental: Wee1 kinase was assayed using a time-resolved fluorescence equilibrium binding assay monitoring displacement of a rapidly reversible Oregon Green-labeled ATP-competitive kinase probe (N-(2-(2-(2-(4-(4-(5-chloro-4-(2-(1-hydroxycyclobutyl)thiazol-5-yl)-1H-pyrrolo[2,3-b]pyridin-2-yl)phenyl)piperazin-1-yl)ethoxy)ethoxy)ethyl)-2′,7′-difluoro-3′,6′-dihydroxy-3-oxo-3H-spiro[isobenzofuran-1,9′-xanthene]-5-carboxamide) by competitive Wee1 inhibitors.
property-name: Ki (nM)
I only need the number, in nM, no unit after it.

CCCN1c2cc(-c3ccc(C(=O)NC4CC4)cc3)ccc2-c2nc(Nc3ccc(N4CCN(C)CC4)cc3)ncc2S1(=O)=O :: 7

Query (compound): C=CCN1c2ncccc2-c2nc(Nc3ccc(N4CCNCC4)cn3)ncc2S1(=O)=O ; field requested: Ki
110

So what's the measured Ki for this one? C=CCN1c2ccccc2-c2nc(Nc3ccc4c(c3)N(C)CCC4)ncc2S1(=O)=O
106

# lookup: Ki of COC(=O)c1ccc2c(c1)N(Cc1c(Cl)cccc1Cl)S(=O)(=O)c1cnc(Nc3ccc(N4CCN(C)CC4)cc3)nc1-2
591

---

Target: GST-tagged-Wee1 kinase (Homo sapiens)
Construct: purchased Carnabio 05-177
Assay: Wee1 time-resolved fluorescence equilibrium binding assay (displacement of Oregon Green-labeled ATP-competitive probe)
Conditions: TR-FRET probe displacement; 2 nM GST-Wee1, 300 nM probe, 1 hour incubation; read-out: Wee-1 binding (Ki nM)
Here the recorded Ki is given for each entry.
Please give a number only; it is taken to be in nM.

As a guide, the following entries are already answered.
CN1CCN(c2ccc(Nc3ncc4c(n3)-c3sccc3N(C)S4(=O)=O)cc2)CC1 :: 8
C=CCN1c2ccccc2-c2nc(Nc3ccc(N4CCCCC4)cc3)ncc2S1(=O)=O :: 31
C=CCN1c2ncccc2-c2nc(Nc3ccc(N4CCN(C)CC4)cn3)ncc2S1(=O)=O :: 210
C=CCN1c2ccccc2-c2nc(Nc3ccccc3N3CCN(C)CC3)ncc2S1(=O)=O :: 738
C=CCN1c2ccccc2-c2nc(Nc3ccc(C4CCN(C)CC4)cc3)ncc2S1(=O)=O :: 1.2
C=CCN1c2ccccc2-c2nc(Nc3ccc(N4CCN(C)CC4)cc3)ncc2S1(=O)=O :: 1.8

Given the entry C=CCN1c2ccccc2-c2nc(Nc3ccc(-c4ccncc4)cc3)ncc2S1(=O)=O , what Ki was observed with GST-tagged-Wee1 kinase (Homo sapiens)?
1230

Please provide the recorded Ki for CCCN1c2cc(C(=O)NCCOC)ccc2-c2nc(Nc3ccc(N4CCN(C)CC4)cc3)ncc2S1(=O)=O , tested on GST-tagged-Wee1 kinase (Homo sapiens).
5

---

Target: GST-tagged-Wee1 kinase (Homo sapiens, UniProt P30291)
Construct: purchased Carnabio 05-177
Experiment: Wee1 time-resolved fluorescence equilibrium binding assay (displacement of Oregon Green-labeled ATP-competitive probe)
Conditions: TR-FRET probe displacement; 2 nM GST-Wee1, 300 nM probe, 1 hour incubation; read-out: Wee-1 binding (Ki nM)
property-name: Ki (nM)
Write the answer as a number in nM, unit excluded.

As a guide, the following entries are already answered.
C=CCN1c2ncccc2-c2nc(Nc3ccc(N4CCCN(C)CC4)c(C)c3)ncc2S1(=O)=O :: 1.1
C=CCN1c2ncccc2-c2nc(Nc3ccc(C(=O)N4CCN(C)CC4)cc3)ncc2S1(=O)=O :: 56
C=CCN1c2ncccc2-c2nc(Nc3ccc(N4CCN(C)CC4)c(Cl)c3)ncc2S1(=O)=O :: 2370
CCCN1c2cc(-c3ccncc3)ccc2-c2nc(Nc3ccc(N4CCN(C)CC4)cc3)ncc2S1(=O)=O :: 5
CCCN1c2cc(-c3ccsc3)ccc2-c2nc(Nc3ccc(N4CCN(C)CC4)cc3)ncc2S1(=O)=O :: 20
CCCN1c2cc(C(=O)N[C@H]3CC[C@H](N)CC3)ccc2-c2nc(Nc3ccc(N4CCN(C)CC4)cc3)ncc2S1(=O)=O :: 4

Could you share which Ki value was measured for C=CCN1c2ncccc2-c2nc(Nc3ccc(N4CCNCC4)cc3)ncc2S1(=O)=O ?
2

GET /values?readout=Ki&item= C=CCN1c2ncccc2-c2nc(Nc3ccccc3)ncc2S1(=O)=O
1450
